method.summary: xn = mol fraction of the nth substance listed, in the solute-free solvent
condition: 313.15 K; x2 = 0.6101
reported.metric: solubility (g/100 g solution)

Worked set:
[
  {
    "compound": "CC(C)C(=O)Nc1ccc([N+](=O)[O-])c(C(F)(F)F)c1 + CCO + O",
    "readout.value": 24.4
  },
  {
    "compound": "O=C1C=CC(=O)N1c1ccccc1Br + CCO + O",
    "readout.value": 17.4
  }
]

1. Nc1cc(-c2ccncc2)c[nH]c1=O + CCO + O
2. O=c1cc(CBr)c2ccccc2[nH]1 + CCO + O
Pick one: 1 or 2 . Which one has the lower reported solubility (g/100 g solution)? Answer format: the label of the selected item. 1
(1: 0.0259, 2: 0.202)
